Listing of entries alongside the reported viability at 100 µM.
- System: primary neuronal cultures from rat cerebral cortex
- procedure-summary: Neuroprotection (MTT cell viability) in primary neuronal cultures exposed to oxygen-glucose deprivation (OGD)
- Assay type: cell-based
- particulars: Rattus norvegicus; 100 μM; 24 h recovery after 4 h OGD; R24 h = 0%, control = 100%
Answer with a number only, understood to be in %.

{"columns": ["molecule", "viability at 100 µM, %"],
 "data": [
  ["CC(C)(C)/[N+]([O-])=C/c1ccc(S(=O)(=O)O)cc1S(=O)(=O)O [Compound 2, reference compound]", 42.8]
]}

Could you now consider this next molecule?
In plain terms, COc1ccc2cc(/C=[N+](\[O-])Cc3ccccc3)c(Cl)nc2c1 has a documented viability at 100 µM of 19.4

* * *

- Tested on: primary neuronal cultures from rat cerebral cortex
- procedure-summary: Neuroprotection (MTT cell viability) in primary neuronal cultures exposed to oxygen-glucose deprivation (OGD)
- Type: cell-based
- particulars: Rattus norvegicus; 100 μM; 24 h recovery after 4 h OGD; R24 h = 0%, control = 100%
property-measured: viability at 100 µM

Answered cases to consult:
{"columns": ["smiles-notation", "viability at 100 µM"],
 "data": [
  ["COc1ccc2nc(Cl)c(/C=[N+](/C)[O-])cc2c1", "< 0%"],
  ["[O-]/[N+](=C\\c1cc2ccccc2nc1Cl)Cc1ccccc1", "< 0%"]
]}

The compound COc1nc2ccccc2cc1/C=[N+](\[O-])Cc1ccccc1 , tested on primary neuronal cultures from rat cerebral cortex, showed viability at 100 µM of < 0%
